These data points were gathered from patent US7563796B2.

human BACE1 (Homo sapiens): reported IC50 for various molecules.
Sequence (P56817 46-501): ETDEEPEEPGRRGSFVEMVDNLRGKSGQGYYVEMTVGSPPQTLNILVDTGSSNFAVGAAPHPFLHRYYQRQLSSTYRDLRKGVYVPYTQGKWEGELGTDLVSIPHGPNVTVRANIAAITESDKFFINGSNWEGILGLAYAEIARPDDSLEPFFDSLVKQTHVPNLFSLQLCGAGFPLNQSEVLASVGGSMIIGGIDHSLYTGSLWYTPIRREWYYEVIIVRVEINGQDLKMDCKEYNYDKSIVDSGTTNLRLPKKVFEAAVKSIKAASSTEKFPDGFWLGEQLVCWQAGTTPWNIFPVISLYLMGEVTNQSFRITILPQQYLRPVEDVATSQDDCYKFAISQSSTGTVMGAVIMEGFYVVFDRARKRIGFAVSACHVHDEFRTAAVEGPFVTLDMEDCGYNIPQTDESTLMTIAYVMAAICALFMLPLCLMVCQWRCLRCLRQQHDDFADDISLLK
Numbers only, in µM.

| molecule | IC50, µM |
| --- | --- |
| CCCc1cccc(C2(c3ccc(OC(F)(F)F)cc3)N=C(N)N3CCCN=C32)c1 (centres unmarked) | 1.43 |
| NC1=NC(c2ccccc2)(c2cccc(Oc3ccc(F)cc3)c2)C2=NCCCN12 (centres unmarked) | 4.7 |
| CC(C)(C)c1ccc(C2(c3ccccc3)N=C(N)N3CCCN=C32)cc1 (centres unmarked) | 30 |
| CCCOc1cccc(C2(c3ccc(OC)c(C)c3)N=C(N)N3CCCN=C32)c1 (centres unmarked) | 0.3 |

Let us examine a further case.
[in] So what's the measured IC50 for this one? NC1=NC(c2ccccc2)(c2cccc(Cc3ccccc3)c2)C2=NCCCN12 (centres unmarked)
[out] 5.3

====

Counter-ions that a name gives are not always drawn.
Kindly supply the reported melting point values for the records listed here.

Here is how some compounds turned out for melting point.
| compound | resultType | valueReported |
| --- | --- | --- |
| CCNC(=O)c1cccc(C2(c3ccc(OC(F)(F)F)cc3)N=C(N)N3CCCN=C32)c1 (centres unmarked) | melting point | 129 to 136 °C |
| NC1=NC(c2ccc(OC(F)(F)F)cc2)(c2cccc(CCC3CC3)c2)C2=NCCCN12 (centres unmarked) | melting point | 65 to 77 °C |
| CCC(=O)Nc1cccc(C2(c3ccc(OC(F)(F)F)cc3)N=C(N)N3CCCN=C32)c1 (centres unmarked) (as salt: hydrochloride) | melting point | 148 to 150 °C |
| C=CCc1cccc(C2(c3ccc(OC(F)(F)F)cc3)N=C(N)N3CCCN=C32)c1 (centres unmarked) | melting point | 89 to 111 °C |

Let us examine a further case.
[in] So what's the measured melting point for this one? CCCc1cccc(C2(c3ccc(OC(F)(F)F)cc3)N=C(N)N3CCCN=C32)c1 (centres unmarked)
[out] 75 to 79 °C
